# TEST SYSTEM: human P2X7 (Homo sapiens)
# Construct: 1321N1 cells stably expressing the full length human P2X7 gene (1321N1-hP2X7)
# Sequence (Q99572 1-595): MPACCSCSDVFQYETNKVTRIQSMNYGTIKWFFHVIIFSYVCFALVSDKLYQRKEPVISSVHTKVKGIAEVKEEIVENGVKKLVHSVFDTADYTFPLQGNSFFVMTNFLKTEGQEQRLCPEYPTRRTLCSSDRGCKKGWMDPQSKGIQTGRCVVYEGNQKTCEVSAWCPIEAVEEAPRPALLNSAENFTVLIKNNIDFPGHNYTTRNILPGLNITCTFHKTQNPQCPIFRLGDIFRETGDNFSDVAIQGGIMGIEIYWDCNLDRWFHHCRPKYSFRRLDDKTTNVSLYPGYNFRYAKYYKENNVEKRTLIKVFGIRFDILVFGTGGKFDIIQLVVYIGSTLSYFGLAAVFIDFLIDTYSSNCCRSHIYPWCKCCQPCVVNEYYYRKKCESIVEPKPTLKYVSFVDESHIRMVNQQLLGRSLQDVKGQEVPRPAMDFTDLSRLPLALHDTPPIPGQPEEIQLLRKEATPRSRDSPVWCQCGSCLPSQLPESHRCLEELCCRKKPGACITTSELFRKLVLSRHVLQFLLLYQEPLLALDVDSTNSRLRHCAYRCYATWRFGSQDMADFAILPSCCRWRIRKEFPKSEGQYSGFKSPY
# TEST DETAILS: P2X7 modulator pIC50 of Table 1 (assay not given; Intracellular Calcium Flux (FLIPR) Assay assumed)
PROPERTY: IC50 (nM)

{"COMPOUND": "Cc1c(NC(=O)C2=CN(C)C(=O)N[C@H]2c2ccc(F)cc2)cccc1-c1ccn[nH]1", "IC50 [nM]": 184}

I = Cc1ccc(-c2ccnn(C)c2=O)cc1NC(=O)C1=CN(C)C(=O)NC1C1CCC(F)(F)CC1 (stereo not shown)
II = Cc1ccc(-n2ncc(=O)n(C)c2=O)cc1NC(=O)C1=CN(C)C(=O)N[C@H]1c1cccc(F)c1
III = Cc1cc(Cl)c(OCCO)cc1NC(=O)C1=CN(C)C(=O)N[C@@H]1C1CCCCC1
// query rank_up(items): orders items by reported IC50 in ascending numerical order. Give your ranking as a list of the labels in the requested order.
// result II, III, I

====

# TEST SYSTEM: human P2X7 (Homo sapiens, UniProt Q99572)
# Construct: 1321N1 cells stably expressing the full length human P2X7 gene (1321N1-hP2X7)
# TEST DETAILS: P2X7 modulator pIC50 of Table 1 (assay not given; Intracellular Calcium Flux (FLIPR) Assay assumed)
pIC50: −log10 of the molar value.
PROPERTY: pIC50

Please review the entries below; each comes with its answer.
{"COMPOUND": "COc1cc(C)c(NC(=O)C2=CNC(=O)N(C)C2c2ccc(F)cc2)cc1OC (stereo not drawn)", "pIC50": 7.07}
{"COMPOUND": "Cc1cc(-c2ccc(C)c(NC(=O)C3=CNC(=O)N[C@H]3c3ccc(F)cc3)c2)n[nH]1", "pIC50": 7.71}
{"COMPOUND": "Cc1cc2cnn(C)c2cc1NC(=O)C1=CN(C)C(=O)N[C@H]1c1ccc(F)cc1", "pIC50": 7.92}

a = Cc1ccc(-c2ccc(=O)n(CCO)n2)cc1NC(=O)C1=CN(C)C(=O)N[C@H]1c1ccc(F)cc1
b = COc1cc(C)c(NC(=O)C2=CNC(=O)N[C@@H]2c2ccc(F)cc2)cc1OC
c = CCc1c(NC(=O)C2=CN(C)C(=O)N[C@H]2c2ccc(F)cc2)ccc2nc(C)ccc12
// query Number of compounds to sort: 3. Sort criterion: pIC50, ascending. Put the labels in the requested order and write them down.
// result b, c, a

A = Cc1cc2cnn(CCO)c2cc1NC(=O)C1=CN(C)C(=O)N[C@H]1c1ccc(F)cc1
B = COc1cc(C)c(NC(=O)C2=CN(C)C(=O)N(C)C2c2ccc(F)cc2)cc1OC (stereo not drawn)
// query Given A and B , report the one with the higher recorded pIC50. Could you answer with the label of the item you picked?
// result A
(A: 7.84, B: 6.71)

P = CCn1nccc(-c2ccc(C)c(NC(=O)C3=CN(C)C(=O)N[C@H]3c3ccc(F)cc3)c2)c1=O
Q = COc1cc(C)c(NC(=O)C2=CN(C)C(=O)NC2c2ccc(F)cc2)cc1OC (stereo not drawn)
R = CCN1C=C(C(=O)Nc2cc(OCCO)c(Cl)cc2C)[C@H](c2ccc(F)cc2)NC1=O
S = Cc1ccc(-c2cccn(C)c2=O)cc1NC(=O)C1=CN(C)C(=O)N[C@H]1c1ccc(F)cc1
// query Rank ascending by pIC50. Returns: the labels arranged in the requested order.
// result Q, R, P, S
(Q: 7.38, R: 7.62, P: 7.84, S: 8.26)

a = CN1C=C(C(=O)Nc2cccc3c(=O)n(CCO)ccc23)[C@H](c2ccc(F)cc2)NC1=O
b = Cc1cc2cn[nH]c2cc1NC(=O)C1=CN(C)C(=O)N[C@H]1c1ccc(F)cc1
// query Endpoint returns whichever of a and b has the numerically higher pIC50. API: response body contains the label of the selected item.
// result b
